- system-under-test: SSTR1 (Homo sapiens, UniProt P30872)
- Construct: purchased Perkin Elmer ES-520-M400UA; host or cells: CHO-K1 membranes
- Sequence (P30872 whole entry): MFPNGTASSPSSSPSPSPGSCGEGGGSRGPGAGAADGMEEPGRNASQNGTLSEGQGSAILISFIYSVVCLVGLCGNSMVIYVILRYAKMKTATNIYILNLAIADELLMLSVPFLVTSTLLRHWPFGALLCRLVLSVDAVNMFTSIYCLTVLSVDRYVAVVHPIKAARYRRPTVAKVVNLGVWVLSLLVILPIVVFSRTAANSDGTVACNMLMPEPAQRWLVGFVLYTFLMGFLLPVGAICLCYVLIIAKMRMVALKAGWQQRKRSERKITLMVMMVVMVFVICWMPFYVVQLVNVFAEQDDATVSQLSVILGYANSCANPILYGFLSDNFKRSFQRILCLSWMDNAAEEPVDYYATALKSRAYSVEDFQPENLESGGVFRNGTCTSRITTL
- assay-remarks: SSTR1 I-125 somatostatin competition binding assay for selectivity versus SSTR1 (CHO-K1 membranes)
- condition-details: competition with I-125 somatostatin, membranes from CHO-K1 overexpressing SSTR1; read-out: SSTR1 Binding pIC50 (converted)

| compound | prefix-operator | IC50, µM |
| --- | --- | --- |
| Cc1cccc(C(C)(C)NC(=O)[C@@H](C)CN2CCC2)c1Cl (single isomer, unassigned) | = | 1.26 |
| O=C(CCN1CCC1)N[C@H](c1cc(F)ccc1F)C(F)F (single isomer, unassigned) | = | 39.8 |
| CCN1CCCC1CC(=O)NC(C)(C)COc1ncccc1C(F)(F)F (centres unmarked) | = | 12.6 |
| CN1CCC[C@@H]1CC(=O)NC(C)(C)[C@@H]1CCc2ccccc2O1 (single isomer, unassigned) | = | 12.6 |
| Cc1cccc2c(C(C)(C)NC(=O)C[C@@H]3CCCN3C)noc12 | = | 25.1 |
| CC[C@@H](CN1CCC1)C(=O)N[C@H](c1ccccc1)C(F)F | = | 0.631 |
| Cc1cccnc1OCC(C)(C)NC(=O)CC12CCCN1CCC2 | > | 50.1 |
| Cc1cccc(C(C)(C)NC(=O)CCN2CCC2)c1 | = | 25.1 |

----------
A collection of compounds and their measured IC50
- system-under-test: SSTR4 (Homo sapiens, UniProt P31391)
- Construct: host or cells: CHO-K1
- Sequence (P31391 whole entry): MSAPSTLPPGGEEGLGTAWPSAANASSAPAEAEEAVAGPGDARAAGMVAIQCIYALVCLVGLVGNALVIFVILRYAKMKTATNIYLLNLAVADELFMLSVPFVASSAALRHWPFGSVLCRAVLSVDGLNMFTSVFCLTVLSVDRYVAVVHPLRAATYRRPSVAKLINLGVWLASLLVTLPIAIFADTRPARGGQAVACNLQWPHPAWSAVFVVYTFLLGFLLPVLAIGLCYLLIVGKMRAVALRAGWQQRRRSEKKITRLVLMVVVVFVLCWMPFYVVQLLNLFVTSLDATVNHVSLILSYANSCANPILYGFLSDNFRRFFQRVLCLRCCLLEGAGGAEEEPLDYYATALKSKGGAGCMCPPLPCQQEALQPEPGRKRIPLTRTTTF
- assay-remarks: SSTR4 I-125 somatostatin competition binding assay (CHO-K1 membranes)
- condition-details: competition with I-125 somatostatin, membranes from CHO-K1 overexpressing SSTR4; read-out: SSTR4 Binding pIC50 (converted)
assay-readout: IC50 (nM)

| compound | unit-of-measurement | measurement |
| --- | --- | --- |
| Cc1c(F)cccc1C(C)(C)NC(=O)[C@H](C)CN1CCC1 (single isomer, unassigned) | nM | 15.8 |
| COc1c(C)cccc1C(C)(C)NC(=O)[C@@H](C)CN1CCC1 (single isomer, unassigned) | nM | 1580 |
| CN1CCC[C@@H]1CC(=O)NC(C)(C)c1ccc(Cl)cc1 | nM | 200 |
| CC(C)(COc1ncccc1C(F)F)NC(=O)CC12CCCN1CCC2 | nM | 10000 |

----------
- system-under-test: SSTR4 (Homo sapiens, UniProt P31391)
- Construct: host or cells: CHO-K1
- assay-remarks: SSTR4 I-125 somatostatin competition binding assay (CHO-K1 membranes)
- condition-details: competition with I-125 somatostatin, membranes from CHO-K1 overexpressing SSTR4; read-out: SSTR4 Binding pIC50 (converted)
For each record, check the reported IC50: if it is below 30 nM write 1.0, else write 0.0.

| molecule | system-under-test | class-assignment |
| --- | --- | --- |
| COc1ccc(C(C)(C)NC(=O)[C@H](C)CN2CCC2)cc1 (single isomer, unassigned) | SSTR4 (Homo sapiens, UniProt P31391) | 0.0 |
| Cc1cccnc1OCC1(NC(=O)C[C@@H]2CCCN2C)CCC1 | SSTR4 (Homo sapiens, UniProt P31391) | 0.0 |
| Cc1ccccc1C(NC(=O)CCN1CCC1)C(F)(F)F (single isomer, unassigned) | SSTR4 (Homo sapiens, UniProt P31391) | 0.0 |
| Cc1cccc(C(C)(C)NC(=O)CCN2CCC2)c1 | SSTR4 (Homo sapiens, UniProt P31391) | 0.0 |
| C[C@@H](CN1CCC1)C(=O)NC1(c2ccccc2F)CC1 (single isomer, unassigned) | SSTR4 (Homo sapiens, UniProt P31391) | 0.0 |
| Cc1c(F)cccc1C(C)(C)NC(=O)CCN1CCC1 | SSTR4 (Homo sapiens, UniProt P31391) | 0.0 |
| CC[C@@H](CN1CCC1)C(=O)N[C@H](c1ccccc1)C(F)F | SSTR4 (Homo sapiens, UniProt P31391) | 1.0 |
| CC(C)[C@@H](CN1CCC1)C(=O)N[C@H](c1cccc(F)c1)C(F)F | SSTR4 (Homo sapiens, UniProt P31391) | 1.0 |
| CN1CCC[C@H]1CC(=O)NC(C)(C)c1nccc2ccccc12 | SSTR4 (Homo sapiens, UniProt P31391) | 0.0 |
